Source: PubChem BioAssay (NCATS)

experiment: BET inhibitor-based combinations targeting novel dependencies in MECOM-rearranged (r) AML: HNT-34 cell line (AID 2202234); conditions: HNT-34 AML viability, CellTiter-Glo luminescence, 48 h; series mostly up to 46 µM; further: nearly all actives have a fitted effect of over 35% in size; further: potency means the concentration at half of the fitted maximal effect
Records with an inconclusive call do not appear. Activity calls are given as the source filed them. The call rests on the fitted dose curve; in most records, active means well fitted inhibition curve with a large enough effect; inconclusive means small, poorly fitted or top-dose-only effect; inactive means no such curve, though single readings can be large or run the other way.
Value Kind: Potency

Sample answers from the record:
CCCCNc1cc(C(=O)O)cc(S(N)(=O)=O)c1Oc1ccccc1 | inactive
COc1cc2c(Nc3ccc(Br)cc3F)ncnc2cc1OCC1CCN(C)CC1 | 2.63 µM (active)
c1nc2nc(Nc3ccc(N4CCOCC4)cc3)nc(NC3CCCCC3)c2[nH]1 | 1.48 µM (active)
Cc1nc2cnc3ccc(C#Cc4cccnc4)cc3c2n1-c1ccc(C(C)(C)C#N)cc1 | 0.525 µM (active)
CCC(C)SSc1ncc[nH]1 (stereo not given) | 9.34 µM (active)

Alright, here's another molecule for you.
IN: Name the reported Potency value associated with the molecule "CC(C)Cn1cnc2c(N)nc3ccccc3c21"
OUT: inactive

====

assay: BET inhibitor-based combinations targeting novel dependencies in MECOM-rearranged (r) AML: MV-4-11 cell line (AID 2202233); settings: MV-4-11 AML viability, CellTiter-Glo luminescence, 48 h; series mostly up to 46 µM; further: nearly all actives have a fitted effect of over 45% in size
Results filed as inconclusive are left out. Active and inactive are the calls of the source. The call rests on the fitted dose curve; in most records, active means well fitted inhibition curve with a large enough effect; inconclusive means small, poorly fitted or top-dose-only effect; inactive means no such curve, though single readings can be large or run the other way.
The categories you may choose from are active, inactive

Example entries and their recorded answers appear below.
Cc1noc2c1-c1ccccc1C(c1ccc(Cl)cc1)=N[C@H]2CC(N)=O | active
Cc1nnc(NS(=O)(=O)c2ccc(N)cc2)s1 | inactive
NC[C@H]1O[C@H](O[C@@H]2[C@@H](O)[C@@H](O[C@H]3O[C@H](CO)[C@@H](O)[C@H](N)[C@@H]3O)[C@H](N)C[C@@H]2N)[C@H](O)[C@@H](O)[C@H]1O | inactive

Now, please, on to the next compound.
IN: Hello, I am checking results. What call was entered for O=C(C(c1ccccc1)c1ccccc1)N1CCN(CC(O)COc2cccc3ncccc23)CC1 (centres undefined) ?
OUT: active

====

molecular target: Aldehyde dehydrogenase, mitochondrial (Homo sapiens); test: qHTS for Inhibitors of the Aldehyde Dehydrogenase Family (ALDH2) Primary screen (AID 2061308); conditions: ALDH2 enzyme inhibition qHTS, 1536-well; series mostly up to 56 µM; further: nearly all actives have a fitted effect of over 55% in size
Results filed as inconclusive are left out. Calls of active or inactive are those of the source. Calls follow the shape of the dose curve; as a rule, active = well fitted inhibition curve with a large enough effect; inconclusive = small, poorly fitted or top-dose-only effect; inactive = flat fitted curve, though single readings scatter.
Value Kind: activity change, negative = inhibition

C[C@@H](NC(=O)c1cc(C(=O)N[C@@H](Cc2ccccc2)[C@H](O)CNC2CC2)cc(N(C)S(C)(=O)=O)c1)c1ccccc1 | inactive
COC1CCN(C(=O)c2cc(Cc3n[nH]c(=O)c4ccccc34)ccc2F)CC1 | inactive
Cc1noc(-c2ccc(-c3ccc(CC(=O)O)cc3)cc2)c1NC(=O)O[C@H](C)c1ccccc1 | inactive
Cc1ccc(CCCO)c(NCc2ccc3nc(NCCCN4CCOCC4)n(Cc4nc(C)ccc4O)c3c2)c1 | inactive
COc1ccc(N2CCOCC2)c2sc(NC(=O)N3CCC(C)(O)CC3)nc12 | inactive

IN: Requested read-out: activity change, negative = inhibition. Entry: "O=C(Nc1ccc2c(c1)CCN(Cc1ncn[nH]1)C2)c1ccccc1-c1ccc(C(F)(F)F)cc1"
OUT: inactive

IN: Try this molecule too: "COc1cc(N2CCC(N(C)C)CC2)ccc1Nc1ncc(Cl)c(Nc2ccccc2P(C)(C)=O)n1"
OUT: inactive

IN: Quick one: COc1ccc2c(c1)C(C(=O)N(Cc1ccc(N(C)C)cc1)c1ccc(C(C)C)cc1)CCC2 (centres undefined)
OUT: inactive

IN: Next: "Nc1nc(-n2cc(C(=O)O)c(=O)c3cc(F)c(N4CC(O)C4)c(Cl)c32)c(F)cc1F"
OUT: inactive
